Origin of the recorded values: ChEMBL document CHEMBL5055663

Biological target: Histamine H3 receptor (Homo sapiens)
Test: Displacement of [3H]Nalpha-methylhistamine from recombinant human histamine H3 receptor expressed in HEK293 cells incubated for 90 mins by competition binding assay
Format: cell-based
endpoint-name: pKi
Scale explanation: pKi corresponds to minus log10 of a concentration expressed in moles per litre.

Examples with answers:
O=C1N[C@@H](Cc2ccccc2)C(=O)N/C1=C\c1ccc(OCCCN2CCCCC2)cc1 (stereo in doubt); 8.70
O=C1CN(Cc2ccc(OCCCN3CCCCC3)cc2)C(=O)CN1; 8.31
CC(C)[C@@H]1NC(=O)[C@H](Cc2ccc(OCCCN3CCCCC3)cc2)NC1=O; 6.66
O=c1[nH]/c(=C\c2ccc(OCCCN3CCCCC3)cc2)c(=O)[nH]/c1=C\c1ccccc1; 8.42
O=C1N[C@@H](Cc2ccc(OCCCN3CCCCC3)cc2)C(=O)N[C@H]1Cc1ccccc1; 7.41

Exam item: I'd like to know its pKi. The compound in question is c1ccc(C[C@H]2CN[C@@H](Cc3ccc(OCCCN4CCCCC4)cc3)CN2)cc1
Marked response: 8.96

Exam item: I'd like to know its pKi. The compound in question is CC(=O)N1C(=O)/C(=C/c2ccc(OCCCN3CCCCC3)cc2)NC(=O)[C@@H]1Cc1ccccc1
Marked response: 8.36

Exam item: I'd like to know its pKi. The compound in question is O=C1CN(C(=O)c2ccc(OCCCN3CCCCC3)cc2)CCN1
Marked response: 8.55

Exam item: I'd like to know its pKi. The compound in question is c1cc(OCCCN2CCCCC2)ccc1C[C@H]1CNCCN1
Marked response: 8.70

Exam item: I'd like to know its pKi. The compound in question is O=C1CNC(=O)[C@H](Cc2ccc(OCCCN3CCCCC3)cc2)N1
Marked response: 7.13

Exam item: I'd like to know its pKi. The compound in question is O=C1CNC(=O)/C(=C/c2ccc(OCCCN3CCCCC3)cc2)N1
Marked response: 7.65

====

Biological target: Histamine H3 receptor (Homo sapiens, UniProt Q9Y5N1)
Sequence (Q9Y5N1 whole entry): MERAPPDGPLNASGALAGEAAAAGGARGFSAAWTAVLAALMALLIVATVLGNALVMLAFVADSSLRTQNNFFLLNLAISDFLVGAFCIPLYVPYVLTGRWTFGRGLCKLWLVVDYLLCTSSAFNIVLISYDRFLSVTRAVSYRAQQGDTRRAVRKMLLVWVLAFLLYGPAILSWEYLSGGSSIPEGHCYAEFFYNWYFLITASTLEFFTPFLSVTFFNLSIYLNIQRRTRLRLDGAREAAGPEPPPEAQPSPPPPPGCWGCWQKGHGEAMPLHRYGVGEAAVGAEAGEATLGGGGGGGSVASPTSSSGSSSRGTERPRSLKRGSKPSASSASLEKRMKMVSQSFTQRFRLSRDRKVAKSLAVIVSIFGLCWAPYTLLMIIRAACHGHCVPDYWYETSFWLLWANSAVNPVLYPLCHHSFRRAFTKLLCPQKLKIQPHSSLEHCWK
Test: Antagonist activity at histamine H3 receptor (unknown origin)
endpoint-name: pKi
Scale explanation: pKi corresponds to minus log10 of a concentration expressed in moles per litre.

Exam item: I'd like to know its pKi. The compound in question is CN1C[C@H]2CCN(c3ccc(-c4ccc(-n5ncccc5=O)cc4)cc3)[C@H]2C1
Marked response: 8.70

====

Biological target: Amyloid-beta precursor protein (Homo sapiens, UniProt P05067)
Sequence (P05067 whole entry): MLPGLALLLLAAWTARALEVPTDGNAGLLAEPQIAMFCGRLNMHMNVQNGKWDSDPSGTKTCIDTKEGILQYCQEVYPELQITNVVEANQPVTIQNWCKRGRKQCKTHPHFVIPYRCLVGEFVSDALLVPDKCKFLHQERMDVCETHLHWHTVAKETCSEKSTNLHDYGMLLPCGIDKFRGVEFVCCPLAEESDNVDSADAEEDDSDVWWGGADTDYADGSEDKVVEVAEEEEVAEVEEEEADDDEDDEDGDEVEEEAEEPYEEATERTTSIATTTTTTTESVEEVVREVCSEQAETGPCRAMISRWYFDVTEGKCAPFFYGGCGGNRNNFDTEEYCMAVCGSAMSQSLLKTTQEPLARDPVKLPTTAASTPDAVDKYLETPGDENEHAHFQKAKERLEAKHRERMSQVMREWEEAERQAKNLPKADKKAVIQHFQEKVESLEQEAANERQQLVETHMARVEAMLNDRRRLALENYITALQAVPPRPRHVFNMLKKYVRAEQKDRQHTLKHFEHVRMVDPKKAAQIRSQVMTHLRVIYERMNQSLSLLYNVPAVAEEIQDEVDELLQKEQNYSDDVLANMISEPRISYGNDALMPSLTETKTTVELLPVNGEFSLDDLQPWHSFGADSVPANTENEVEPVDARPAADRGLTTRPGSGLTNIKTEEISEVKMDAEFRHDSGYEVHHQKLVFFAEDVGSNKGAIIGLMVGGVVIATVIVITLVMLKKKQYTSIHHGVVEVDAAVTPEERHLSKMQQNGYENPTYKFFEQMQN
endpoint-name: Kd (mM)
Just the number please, in mM, no unit attached.

O=C1N[C@@H](Cc2ccc(OCCCN3CCCCC3)cc2)C(=O)N[C@H]1Cc1ccccc1; 12

Exam item: State its Kd on Amyloid-beta precursor protein (Homo sapiens, UniProt P05067): O=C1CN(Cc2ccc(OCCCN3CCCCC3)cc2)C(=O)CN1
Marked response: 1.55

====

Molecular target: Histamine H3 receptor (Homo sapiens, UniProt Q9Y5N1)
Assay: Displacement of [3H]Nalpha-methylhistamine from recombinant human histamine H3 receptor expressed in HEK293 cells incubated for 90 mins by competition binding assay
Assay type: cell-based
Measured log10 of Ki accompanies every entry in the list below.
All values: base-10 log of Ki in nM.

Examples with answers:
CC(=O)N1CC(=O)N/C(=C\c2ccc(OCCCN3CCCCC3)cc2)C1=O; 0.58
O=C1CN(Cc2ccc(OCCCN3CCCCC3)cc2)CCN1Cc1ccccc1; 1.05
C[C@@H]1NC(=O)[C@H](Cc2ccc(OCCCN3CCCCC3)cc2)NC1=O; 2.20

Exam item: I'd like to know its log10 of Ki. The molecule in question is O=C1CN(C(=O)c2ccc(OCCCN3CCCCC3)cc2)CCN1Cc1ccccc1
Marked response: 0.69

Exam item: I'd like to know its log10 of Ki. The molecule in question is O=C1CNC(=O)[C@@H](Cc2ccc(OCCCN3CCCCC3)cc2)N1
Marked response: 2.20
